Target Desc: T1, human ENTPD2 expressed on cells (human, UniProt Q9Y5L3 1-495)
T1 sequence: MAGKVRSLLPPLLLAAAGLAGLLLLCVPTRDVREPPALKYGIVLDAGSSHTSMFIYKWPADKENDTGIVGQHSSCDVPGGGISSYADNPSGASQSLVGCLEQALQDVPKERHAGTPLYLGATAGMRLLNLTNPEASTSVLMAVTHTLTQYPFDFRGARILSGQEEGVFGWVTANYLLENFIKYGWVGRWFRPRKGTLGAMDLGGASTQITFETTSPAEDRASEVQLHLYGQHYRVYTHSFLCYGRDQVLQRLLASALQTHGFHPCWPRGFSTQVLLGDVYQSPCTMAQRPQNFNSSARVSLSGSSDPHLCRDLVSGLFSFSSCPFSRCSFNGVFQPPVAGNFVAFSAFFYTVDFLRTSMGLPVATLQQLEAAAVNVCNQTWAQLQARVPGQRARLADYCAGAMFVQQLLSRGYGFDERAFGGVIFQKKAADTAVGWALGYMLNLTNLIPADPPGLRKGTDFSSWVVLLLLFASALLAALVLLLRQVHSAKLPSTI
Experiment: cell-based or functional assay
So I've got a bunch of binders here, and I need their IC50, RKO Assay values.
Numbers only, in nM.

Binder	Unit Abbreviation	IC50, RKO Assay
ANTI-HUMAN ENTPD2 MAB6 (antibody, human IgG1, kappa, V domains shown, humanized and optimized from mAb16; human IgG1, kappa; also called Anti-ENTPD2 mAb6) VH: QVQLQESGPGLVKPSQTLSLTCTVSGYSITSGYYWNWIRQHPGKGLEWMGYISYDADNNYNPSLKNRITISRDTSKNQFSLKLSSVTAADTAVYYCAGGYYRYGLGSYSGSYYYVMDYWGQGTTVTVSS VL: DTQMTQSPSSLSVSVGDRATITCKASQSVDYEGHSYMNWYQQKPGKAPKLLIYAASNLESGVPSRFSGSGSGTDFTLTISSVQPEDFATYYCQQSNEDPPTFGGGTKLEIKR	nM	0.2

// for each binder below, give its IC50, RKO Assay
1. ANTI-HUMAN ENTPD2 MAB4 (antibody, human IgG1, kappa, V domains shown, humanized and optimized from mAb16; human IgG1, kappa; also called Anti-ENTPD2 mAb4) VH: QIQLQESGPGLVKPSQTLSLTCTVSGYSITSGYYWNWIRQHPGKGLEWIGYISYDADNNYNPSLKNRVTISRDTSKNQFSLKLSSVTAADTAVYYCAGGYYRYGLGSYRGSYYYVMDYWGQGTTVTVSS VL: ETVLTQSPATLSVSPGERATISCKASQSVDYEGHSYMNWYQQKPGQAPRLLIYAASNLESGIPARFSGSGSGTDFTLTISSVEPEDAATYYCQQSNEDPPTFGGGTKLEIKR
2. ANTI-HUMAN ENTPD2 MAB3 (antibody, human IgG1, kappa, V domains shown, humanized from mAb17; human IgG1, kappa; also called Anti-ENTPD2 mAb3) VH: QVQLVQSGAEVVKPGASVKISCKASGYTFTDYNMDWVKQAPGQRLEWIGDINPKYDISTYNQQFKGKATITVDTSASTAYMELSSLRSEDTAVYYCARRGFFLYYGINYYYFDVWGQGTLVTVSS VL: EIVLTQSPATLSASPGERITLSCSASSSVSYIHWYQQKPGQAPRLLIYSTSNLASGIPARFSGSGSGTFYTLTISSVEPEDAAVYYCHQWSSYPWTFGGGTKLEIKR
3. ANTI-HUMAN ENTPD2 MAB8 (antibody, human IgG1, lambda, V domains shown, also called Anti-ENTPD2 mAb8) VH: QVQLQQSGPGLVKPSQTLSLTCAISGDSVSSSSAAWNWIRQSPSRGLEWLGRIYYRSKWYNDYAVSVKSRITINPDTSKNQFSLQLNSVTPEDTAVYYCARGSYVTSSYEGFDYWGQGTLVTVSS VL: SYELTQPLSVSVALGQTARITCSGDNLPEKYAYWYQQKPGQAPVLVIYDDNKRPSGIPERFSGSNSGNTATLTISRAQAGDEADYYCQSYGKWGWTWVFGGGTKLTVLG
4. ANTI-HUMAN ENTPD2 MAB5 (antibody, human IgG1, kappa, V domains shown, humanized and optimized from mAb16; human IgG1, kappa; also called Anti-ENTPD2 mAb5) VH: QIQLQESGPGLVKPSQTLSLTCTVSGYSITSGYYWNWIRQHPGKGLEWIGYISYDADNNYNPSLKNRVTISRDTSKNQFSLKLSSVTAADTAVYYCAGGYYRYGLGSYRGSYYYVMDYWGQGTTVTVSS VL: ETVLTQSPATLSVSPGERATISCKASQSVDYDGNSYMNWYQQKPGQAPRLLIYAASNLESGIPARFSGSGSGTDFTLTISSVEPEDAATYYCQQSNEDPPTFGGGTKLEIKR

1. 0.2
2. 1.6
3. 0.2
4. 0.2

// for each binder below, give its IC50, RKO Assay
1. ANTI-HUMAN ENTPD2 MAB10 (antibody, human IgG1, lambda, V domains shown, also called Anti-ENTPD2 mAb10) VH: QVQLVQSGAEVKKPGSSVKVSCKASGGTFDSYAVSWVRQAPGQGLEWMGRIVPWLGFTRYAQKFQGRVTITADESTSTAYMELSSLRSEDTAVYYCARESPGYRYSFDVWDQGTLVTVSS VL: SYELTQPLSVSVALGQTARITCSGDAIGEKYVYWYQQKPGQAPVLVIYDDNNRPSGIPERFSGSNSGNTATLTISRAQAGDEADYYCASYDLQQARWVFGGGTKLTVLG
2. ANTI-HUMAN ENTPD2 MAB17 (antibody, human IgG1, kappa, V domains shown) VH: EVQLQQFGAELVKPGASVKISCKASGYTFTDYNMDWVKQSHGKSLEWIGDINPKYDISTYNQQFKGKATLTVDKSSSTAYMELRSLTSEDTAVYYCARRGFFLYYGINYYYFDVWGAGTTVTVSS VL: QIVLTQSPAIMSASLGEEITLTCSASSSVSYIHWYQQKSGTSPTLLIYSTSNLASGVPSRFSGSGSGTFYSLTISSVEAEDAADYYCHQWSSYPWTFGGGTKLEIKR
3. ANTI-HUMAN ENTPD2 MAB9 (antibody, human IgG1, lambda, V domains shown, also called Anti-ENTPD2 mAb9) VH: QVQLVQSGAEVKKPGSSVKVSCKASGGTFDSYAVSWVRQAPGQGLEWMGRIVPWLGHTQYAQKFQGRVTITADESTSTAYMELSSLRSEDTAVYYCARESPGYRYSFDVWDQGTLVTVSS VL: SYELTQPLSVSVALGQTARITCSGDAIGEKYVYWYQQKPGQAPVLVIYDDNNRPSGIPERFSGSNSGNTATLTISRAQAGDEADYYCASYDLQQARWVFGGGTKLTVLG

1: 0.2; 2: 0.5; 3: 0.1
